test system: INS-1 cells; assay: Insulin secretion of INS-1 cells measured by ELISA; format: cell-based; settings: 10 μM, 2 hours
Overview of reported increase of the amount of insulin secreted compared to control group (DMSO) across a group of molecules:
property measured: increase of the amount of insulin secreted compared to control group (DMSO) (%)

molecule | test target | readout units | experimental result
CC(C)=CCC[C@](C)(O)[C@H]1CC[C@]2(C)[C@@H]1[C@H](O)C[C@@H]1[C@@]3(C)CC[C@H](O[C@@H]4O[C@H](CO)[C@@H](O)[C@H](O)[C@H]4O[C@@H]4O[C@H](CO)[C@@H](O)[C@H](O)[C@H]4O)C(C)(C)[C@@H]3CC[C@]12C [ginsenoside Rg3] | INS-1 cells | % | 50
CC(C)=CCC[C@](C)(O[C@@H]1O[C@H](CO[C@@H]2OC[C@@H](O)[C@H](O)[C@H]2O)[C@@H](O)[C@H](O)[C@H]1O)[C@H]1CC[C@]2(C)[C@@H]1[C@H](O)C[C@@H]1[C@@]3(C)CC[C@H](O[C@@H]4O[C@H](CO)[C@@H](O)[C@H](O)[C@H]4O[C@@H]4O[C@H](CO)[C@@H](O)[C@H](O)[C@H]4O)C(C)(C)[C@@H]3CC[C@]12C [ginsenoside Rb3] | INS-1 cells | % | 50
CC(C)=CCC[C@](C)(O[C@@H]1O[C@H](CO[C@@H]2OC[C@H](O)[C@H](O)[C@H]2O)[C@@H](O)[C@H](O)[C@H]1O)[C@H]1CC[C@]2(C)[C@@H]1[C@H](O)C[C@@H]1[C@@]3(C)CC[C@H](O[C@@H]4O[C@H](CO)[C@@H](O)[C@H](O)[C@H]4O[C@@H]4O[C@H](CO)[C@@H](O)[C@H](O)[C@H]4O)C(C)(C)[C@@H]3CC[C@]12C [ginsenoside Rb2] | INS-1 cells | % | 50
CC(C)=CCC[C@](C)(O[C@@H]1O[C@H](CO)[C@@H](O)[C@H](O)[C@H]1O)[C@H]1CC[C@]2(C)[C@@H]1[C@H](O)C[C@@H]1[C@@]3(C)CC[C@H](O)C(C)(C)[C@@H]3[C@@H](O)C[C@]12C [ginsenoside F1] | INS-1 cells | % | 50

The measured values listed here are drawn from patent US20180228823A1.
